This collection of values is drawn from patent US20230348603A1.

# assayed target: T1, Human VSIG4-S-His (human, UniProt Q9Y279 20-283)
# T1 construct: short isoform ECD with His tag; also called hVSIG4-S; VISG4-S-His
# T1 sequence: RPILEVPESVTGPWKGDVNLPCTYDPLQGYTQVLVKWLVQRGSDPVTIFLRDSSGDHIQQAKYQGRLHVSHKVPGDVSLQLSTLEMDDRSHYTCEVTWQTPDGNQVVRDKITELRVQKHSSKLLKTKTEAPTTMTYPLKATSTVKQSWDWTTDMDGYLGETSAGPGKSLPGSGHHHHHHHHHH
# protocol summary: BLI (Octet), mouse IgG on AMC sensor, antigen 100 nM;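 note: octet Red384 biolayer interferometry with immobilized mouse hybridoma antibodies, 300 s association then 300 s dissociation at 30 °C, isotype-control reference subtraction, 1:1 global fit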
measured property: Kd (nM)
Supply the numeric figure in nM, leaving out any unit text.

# get_value(readout='Kd', item= 9A10.C4 murine hybridoma antibody (antibody, V domains shown, murine IgG purified from hybridoma supernatant) VH: EVQLVESGGALVQPGGSLKLSCVASGFSFSNCVMSWVRQSPEKRLEWVATIGSDGSYSYYQDNVKGRFTVSRDNAKNTLYLQMSSLGSEDTALYYCGRHIYGYDVVDYWGQGTSLTVSS VL: DIVMTQSHKFMSTSVGDRVTITCKASQDVSNVVAWFQQKPGQSPKLLIYSASYRFGGVPDRFTGSGSGTDFTFTISSVQAEDLAVYYCQQHYDTPLTFGTGTTLELK )
5.16

# get_value(readout='Kd', item= 14F8.H6 murine hybridoma antibody (antibody, V domains shown, murine IgG purified from hybridoma supernatant) VH: EVHLVESGGALVKPGGSLKLSCTASGFTFSNSVMSWIRQTPEKRLEWVATIGSGGTYIYYPDSVKGRFTISRDNSKNTLFLQMTSLRSEDTALYYCARHIYGYDVVDYWGQGTTLTVST VL: DIVMTQSHRFMSTSVGDRVSITCKASHDVSNVVAWYQQKPGQSPELLIYSASYRYTGVPARFTGSGSGTDFTFTISSVQAEDLAVYFCQQHFTTPLTFGAGTSLEVR )
5.86

# get_value(readout='Kd', item= 10E8.B6 murine hybridoma antibody (antibody, V domains shown, murine IgG purified from hybridoma supernatant) VH: EVQLQQSGPELMKPGDSVKMSCKASGYTFTDYYMDWVKQSHGKSLEWIGYIYPNIDFTTYNQKFKGKATLTVDKSSNTAYMELHSLTSEDSAVYYCTRRDLPLHGSAYYFDYWGQGTTLTVSS VL: DIVMSQSPSSLAVSAGEKVTMSCKSSQSLLNSRTRKNYLAWYQQKPGQSPKLLIYWASTRESGVPDRFTGSGSGTDFTLTISSVQAEDLAVYYCKQSYDLFTFGSGTKLEIK )
6.95
